Target Or Test System: α-amylase (Sus scrofa)
Construct: purchased Adamas-beta Reagents Co., Ltd. (Shanghai, China); host or cells: porcine pancreas
Sequence (P00690 16-511): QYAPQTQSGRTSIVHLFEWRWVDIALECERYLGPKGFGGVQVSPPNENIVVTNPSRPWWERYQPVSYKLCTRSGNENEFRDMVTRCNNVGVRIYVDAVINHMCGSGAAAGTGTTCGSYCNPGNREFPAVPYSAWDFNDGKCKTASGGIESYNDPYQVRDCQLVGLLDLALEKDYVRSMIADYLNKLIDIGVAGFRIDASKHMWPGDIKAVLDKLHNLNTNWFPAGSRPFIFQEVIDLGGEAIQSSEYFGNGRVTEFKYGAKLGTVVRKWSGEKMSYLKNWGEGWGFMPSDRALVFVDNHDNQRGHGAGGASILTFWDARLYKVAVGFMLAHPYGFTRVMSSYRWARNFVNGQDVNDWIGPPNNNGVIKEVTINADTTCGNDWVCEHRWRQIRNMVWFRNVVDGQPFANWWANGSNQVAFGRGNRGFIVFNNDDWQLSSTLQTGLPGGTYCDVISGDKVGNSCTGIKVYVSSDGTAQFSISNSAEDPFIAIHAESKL
Assay: Affinity ultrafiltration MTAUF-UPLC-MS/MS of DE with α-amylase
Assay type: binding, porcine
Conditions Used: peak area with active / inactivated enzyme; DE 5.0 mg·mL^−1
Observed Property: relative binding affinity (RBA) toward α-amylase

[[record]]
input_smiles = "O=c1cc(-c2ccc(O)c(O)c2)oc2cc(O)cc(O)c12"
quantitative_readout = 1.83

[[record]]
input_smiles = "COc1cc(O)c2c(=O)cc(-c3ccc(O)cc3)oc2c1"
quantitative_readout = 2.13

[[record]]
input_smiles = "COc1ccc(C=CC(=O)O)cc1OC"
quantitative_readout = 1.05

[[record]]
input_smiles = "COc1cc(/C=C/C(=O)O)ccc1O"
quantitative_readout = 1.08

[[record]]
input_smiles = "O=c1c(-c2ccc(O)cc2)coc2cc(O)cc(O)c12"
quantitative_readout = 1.15


Value source: paper PMC12692036
